biological target: human CaMKIIδ (Homo sapiens); construct: Full-length, glutathione-S-transferase(GST)-tagged, human CaMKIIδ was purchased from Carna Biosciences; purchased Carna Biosciences (CaMKIIδ); Wako Pure Chemical Industries (calmodulin) 02-111; experiment: Evaluation of in vitro CaMKII inhibitory activity (binding assay, TR-FRET); settings: in vitro CaMKII inhibitory activity (binding assay), human CaMKIIδ; read-out: Act
Attribute: IC50
VALUE KIND: IC50

>>> result("C[C@@H](Cn1cnnn1)Oc1cccc(-c2ccc3ncc(-c4cc(F)cn(C)c4=O)n3n2)c1")
"< 10 nM"
>>> result("COCCn1cccc(-c2cnc3ccc(-c4cccc(O[C@@H](C)Cn5cnnn5)c4)nn23)c1=O")
"< 10 nM"
>>> result("C[C@@H](Cn1cnnn1)Oc1cccc(-c2ccc3ncc(-c4nccnc4C#N)n3n2)c1")
"< 10 nM"
>>> result("C[C@@H](Cn1cnnn1)Oc1cccc(-c2ccc3ncc(-c4[nH]ccc(=O)c4C#N)n3n2)c1")
"10 to 100 nM"
>>> result("C[C@@H](Cn1cnnn1)Oc1cccc(-c2ccc3ncc(-c4ncccc4C#N)n3n2)c1")
"< 10 nM"
>>> result("C[C@@H](Cn1cnnn1)Oc1cc(-c2ccc3ncc(-c4ncccc4C#N)n3n2)ccc1F")
"< 10 nM"
>>> result("COc1ccnc(-c2cnc3ccc(-c4cccc(O[C@@H](C)Cn5cnnn5)c4)nn23)c1C#N")
"< 10 nM"
>>> result("C[C@@H](Cn1cnnn1)Oc1cc(-c2ccc3ncc(-c4c[n+]([O-])ccc4C#N)n3n2)ccc1F")
"< 10 nM"
>>> result("C[C@@H](Cn1cnnn1)Oc1cccc(-c2ccc3ncc(-c4nccc(C(F)F)c4C#N)n3n2)c1")
"< 10 nM"
>>> result("C[C@@H](Cn1cnnn1)Oc1cccc(-c2ccc3ncc(-c4cccnc4C#N)n3n2)c1")
"< 10 nM"
>>> result("C[C@@H](Cn1cnnn1)Oc1cc(-c2ccc3ncc(-c4nccc(OCF)c4C#N)n3n2)ccc1F")
"< 10 nM"
>>> result("C[C@@H](Cn1cnnn1)Oc1cccc(-c2ccc3ncc(-c4cc[nH]c(=O)c4C#N)n3n2)c1")
"< 10 nM"
>>> result("C[C@@H](Cn1cnnn1)Oc1cccc(-c2ccc3nnc(-c4cc(F)ccc4C#N)n3n2)c1")
"> 100 nM"
>>> result("C[C@@H](Cn1cnnn1)Oc1nccc(-c2ccc3ncn(-c4cc(F)ccc4C#N)c3n2)n1")
"10 to 100 nM"
>>> result("C[C@@H](Cn1cnnn1)Oc1cccc(-c2ccc3ncn(-c4cc(F)ccc4C#N)c3n2)n1")
"< 10 nM"
>>> result("COc1ncnc(-c2cnc3ccc(-c4ccc(F)c(O[C@@H](C)Cn5cnnn5)c4)nn23)c1C#N")
"< 10 nM"
>>> result("C[C@@H](Cn1cnnn1)Oc1cccc(-c2ccc3ncc(-c4cc(Cl)c[nH]c4=O)n3n2)c1")
"< 10 nM"
>>> result("COc1ccc(-c2cnc3ccc(-c4ccc(F)c(O[C@@H](C)Cn5cnnn5)c4)nn23)c(C#N)n1")
"< 10 nM"
>>> result("C[C@@H](Cn1cnnn1)Oc1cccc(-c2ccc3ncc(-c4cc(F)cn(CC#N)c4=O)n3n2)c1")
"< 10 nM"
>>> result("C[C@@H](Cn1cnnn1)Oc1cccc(-c2ccc3ncc(-c4c(F)cccc4C#N)n3n2)n1")
"10 to 100 nM"
>>> result("CCOc1ccnc(-n2cnc3ccc(-c4ccnc(O[C@@H](C)Cn5cnnn5)c4)nc32)c1C#N")
"10 to 100 nM"
>>> result("C[C@@H](Cn1cnnn1)Oc1cncc(-c2ccc3ncc(-c4ccccc4C#N)n3n2)c1")
"< 10 nM"
>>> result("C[C@@H](Cn1cnnn1)Oc1cc(-c2ccc3ncc(-c4cc(=O)n(C)cc4C#N)n3n2)ccc1F")
"< 10 nM"
>>> result("C[C@@H](Cn1cnnn1)Oc1cccc(-c2ccc3ncc(-c4ncccc4C#N)n3n2)n1")
"> 100 nM"
>>> result("C[C@@H](Cn1cnnn1)Oc1cccc(-c2ccc3ncc(-c4ccccc4C#N)n3n2)c1")
"< 10 nM"
>>> result("CC(=O)c1ccc(C#N)c(-c2cnc3ccc(-c4cccc(O[C@@H](C)Cn5cnnn5)c4)nn23)n1")
"10 to 100 nM"
>>> result("C[C@@H](Cn1cnnn1)Oc1cncc(-c2ccc3ncn(-c4cc(F)cc(OC(F)F)c4C#N)c3n2)n1")
"10 to 100 nM"
>>> result("C[C@@H](Cn1cnnn1)Oc1cccc(-c2ccc3ncc(-c4cc(F)cc(C(F)F)c4C#N)n3n2)n1")
"< 10 nM"
>>> result("C[C@@H](Cn1cnnn1)Oc1cccc(-c2ccc3ncc(-c4nccc(OCC5COC5)c4C#N)n3n2)c1")
"< 10 nM"
>>> result("COc1cc(F)cc(-c2cnc3ccc(-c4cccc(O[C@@H](C)Cn5cnnn5)n4)nn23)c1C#N")
"< 10 nM"
